- Assay target: histidine tagged recombinant human full-length Bruton Agammaglobulinemia Tyrosine Kinase (Btk) (Homo sapiens)
- Construct: recombinant human full-length Bruton Agammaglobulinemia Tyrosine Kinase (Btk); histidine tag
- Sequence (Q06187 whole entry): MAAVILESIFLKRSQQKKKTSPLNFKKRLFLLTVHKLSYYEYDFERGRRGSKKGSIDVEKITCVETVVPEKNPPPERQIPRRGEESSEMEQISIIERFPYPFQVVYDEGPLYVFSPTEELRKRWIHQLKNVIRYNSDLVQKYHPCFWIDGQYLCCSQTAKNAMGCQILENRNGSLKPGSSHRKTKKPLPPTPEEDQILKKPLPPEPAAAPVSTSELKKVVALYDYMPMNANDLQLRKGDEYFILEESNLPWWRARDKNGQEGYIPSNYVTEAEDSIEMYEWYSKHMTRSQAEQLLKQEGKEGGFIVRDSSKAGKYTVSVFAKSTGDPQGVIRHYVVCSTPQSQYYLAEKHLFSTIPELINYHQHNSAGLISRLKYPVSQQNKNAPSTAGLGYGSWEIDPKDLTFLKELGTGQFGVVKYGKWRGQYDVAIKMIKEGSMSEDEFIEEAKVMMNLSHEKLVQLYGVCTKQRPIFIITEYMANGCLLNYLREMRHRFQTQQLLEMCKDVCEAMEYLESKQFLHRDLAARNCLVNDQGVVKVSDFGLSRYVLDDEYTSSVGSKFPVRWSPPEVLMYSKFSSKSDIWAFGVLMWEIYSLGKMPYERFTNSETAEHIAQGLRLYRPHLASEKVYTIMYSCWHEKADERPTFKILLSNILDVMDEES
- Test method notes: Btk kinase inhibition assay (fluorescence polarization, KinEASE FP Fluorescein Green)
- Format: biochemical
- Study conditions: 10 μM ATP, 250 μM substrate, 60 minutes, room temperature; Ki from IC50 by Cheng-Prusoff; read-out: ki50 (nM), Inhibition of Btk

{"Molecule": "CC1OCc2c1c1ncnc(N)c1n2-c1ccc(Oc2cccc(NS(=O)(=O)c3ccccc3)c2)cc1 (centres unmarked)", "Ki": "< 1000 nM"}
{"Molecule": "CC1OCc2c1c1ncnc(N)c1n2-c1ccc(Oc2cccc(OCc3ccc(C#N)cc3)c2)cc1 (centres unmarked)", "Ki": "< 1000 nM"}
{"Molecule": "NCC(=O)N1Cc2c(n(-c3ccc(Oc4ccccc4)cc3)c3c(N)ncnc23)C1", "Ki": "> 1000 nM"}
{"Molecule": "Nc1ncnc2c3c(n(-c4ccc(Oc5ccccc5)cc4)c12)CCN(C(=O)OCc1ccccc1)C3", "Ki": "> 1000 nM"}
{"Molecule": "CC1OCc2c1c1ncnc(N)c1n2-c1ccc(Oc2cccc(CCOc3ccccc3)c2)cc1 (centres unmarked)", "Ki": "< 100 nM"}
{"Molecule": "CC1OCc2c1c1ncnc(N)c1n2-c1ccc(Oc2cccc(F)c2)cc1 (centres unmarked)", "Ki": "< 1000 nM"}
{"Molecule": "CC(C)CC(=O)Nc1cccc(Oc2ccc(-n3c4c(c5ncnc(N)c53)C(C)OC4)cc2)c1 (centres unmarked)", "Ki": "< 100 nM"}
{"Molecule": "CC(=O)Nc1ccccc1OCc1cccc(Oc2ccc(-n3c4c(c5ncnc(N)c53)C(C)OC4)cc2)c1 (centres unmarked)", "Ki": "< 1000 nM"}
{"Molecule": "Nc1ncnc2c3c(n(-c4ccc(Oc5ccccc5)cc4)c12)CCN(Cc1ccccc1)C3", "Ki": "> 1000 nM"}
{"Molecule": "N#Cc1ccccc1COc1cccc(Oc2ccc(-n3c4c(c5ncnc(N)c53)COC4)cc2)c1", "Ki": "< 100 nM"}
{"Molecule": "CC1OCc2c1c1ncnc(N)c1n2-c1ccc(Oc2ccc(C#N)cc2)cc1 (centres unmarked)", "Ki": "> 1000 nM"}
{"Molecule": "CC1OCc2c1c1ncnc(N)c1n2-c1ccc(Oc2cccc(OCc3ccncc3)c2)cc1 (centres unmarked)", "Ki": "< 100 nM"}
{"Molecule": "CC1OCc2c1c1ncnc(N)c1n2-c1ccc(Oc2cccc(NC(=O)c3cccc(F)c3)c2)cc1 (centres unmarked)", "Ki": "< 100 nM"}
{"Molecule": "CC1OCc2c1c1ncnc(N)c1n2-c1ccc(Oc2cccc(OCCc3ccccc3)c2)cc1 (centres unmarked)", "Ki": "< 100 nM"}
{"Molecule": "CC1OCc2c1c1ncnc(N)c1n2-c1ccc(Oc2ccccc2)c(F)c1 (centres unmarked)", "Ki": "< 1000 nM"}
{"Molecule": "CC1OCc2c1c1ncnc(N)c1n2-c1ccc(Oc2cccc(OCc3ccccn3)c2)cc1 (centres unmarked)", "Ki": "< 100 nM"}
{"Molecule": "Nc1ncnc2c3c(n(-c4ccc(Oc5ccccc5)cc4)c12)CN(S(=O)(=O)c1ccccc1)C3", "Ki": "> 1000 nM"}
{"Molecule": "CC1OCc2c1c1ncnc(N)c1n2-c1ccc(Oc2cccc(OCC#N)c2)cc1 (centres unmarked)", "Ki": "< 100 nM"}
{"Molecule": "CC1OCc2c1c1ncnc(N)c1n2-c1ccc(Oc2cccc(C(F)(F)F)c2)cc1 (centres unmarked)", "Ki": "< 1000 nM"}
{"Molecule": "CC1OCc2c1c1ncnc(N)c1n2-c1ccc(Oc2cccc(COc3ccccc3C#N)c2)cc1 (centres unmarked)", "Ki": "< 100 nM"}
{"Molecule": "Nc1ncnc2c3c(n(-c4ccc(Oc5cccc(OCc6ccccc6)c5)cc4)c12)CCC3", "Ki": "< 100 nM"}
{"Molecule": "CC1OCc2c1c1ncnc(N)c1n2-c1ccc(Oc2ccccc2)cc1 (centres unmarked)", "Ki": "< 100 nM"}
{"Molecule": "CC1OCc2c1c1ncnc(N)c1n2-c1ccc(Oc2cccc(OCc3cncn3C)c2)cc1 (centres unmarked)", "Ki": "< 100 nM"}
{"Molecule": "CC1OCc2c1c1ncnc(N)c1n2-c1ccc(Oc2cccc(OCc3cccc([N+](=O)[O-])c3)c2)cc1 (centres unmarked)", "Ki": "< 100 nM"}
{"Molecule": "CCN1CCc2c(c3ncnc(N)c3n2-c2ccc(Oc3ccccc3)cc2)C1", "Ki": "> 1000 nM"}
{"Molecule": "Cc1nc(-c2cccc(Oc3ccc(-n4c5c(c6ncnc(N)c64)C(C)OC5)cc3)c2)cs1 (centres unmarked)", "Ki": "< 100 nM"}
{"Molecule": "COc1cccc(COc2cccc(Oc3ccc(-n4c5c(c6ncnc(N)c64)C(C)OC5)cc3)c2)c1 (centres unmarked)", "Ki": "< 100 nM"}
{"Molecule": "CC1OCc2c1c1ncnc(N)c1n2-c1ccc(Oc2cccc(COc3ccccc3)c2)cc1 (centres unmarked)", "Ki": "< 100 nM"}
{"Molecule": "CC1OCc2c1c1ncnc(N)c1n2-c1ccc(Oc2cccc(C#N)c2)cc1 (centres unmarked)", "Ki": "> 1000 nM"}
{"Molecule": "CC(=O)Nc1ccc(COc2cccc(Oc3ccc(-n4c5c(c6ncnc(N)c64)C(C)OC5)cc3)c2)cc1 (centres unmarked)", "Ki": "< 1000 nM"}
{"Molecule": "Nc1ncnc2c3c(n(-c4ccc(Oc5ccccc5)cc4)c12)CCC3", "Ki": "< 1000 nM"}
{"Molecule": "CC1OCc2c1c1ncnc(N)c1n2-c1ccc(Oc2cccc(OCc3cccc(F)c3)c2)cc1 (centres unmarked)", "Ki": "< 100 nM"}
